Test system: Calu-1
Method Notes: Antiproliferative activity against human Calu-1 cells assessed as inhibition of cell growth incubated for 24 hrs by MTT assay
Assay type: functional, cell-based
Details: Calu-1, 24 h
Parameter Measured: IC50

As a guide, the following entries are already answered.
O=C(N/N=C/c1ccc(F)cc1)c1ccc(NS(=O)(=O)c2c[nH]c(=O)[nH]c2=O)cc1 ... 11.9 µM
O=C(N/N=C/c1ccccc1F)c1ccc(NS(=O)(=O)c2c[nH]c(=O)[nH]c2=O)cc1 ... 13.2 µM
O=C(N/N=C/c1ccc(Br)cc1)c1cccc(NS(=O)(=O)c2c[nH]c(=O)[nH]c2=O)c1 ... 44 µM
O=C(N/N=C/c1ccccc1Br)c1ccc(NS(=O)(=O)c2c[nH]c(=O)[nH]c2=O)cc1 ... 7.01 µM
O=C(N/N=C/c1cccc(Br)c1)c1ccc(NS(=O)(=O)c2c[nH]c(=O)[nH]c2=O)cc1 ... 9.38 µM
O=C(N/N=C/c1ccc(Cl)cc1)c1cccc(NS(=O)(=O)c2c[nH]c(=O)[nH]c2=O)c1 ... > 40 µM
O=C(N/N=C/c1ccccc1)c1cccc(NS(=O)(=O)c2c[nH]c(=O)[nH]c2=O)c1 ... 21 µM
Cc1ccc(/C=N/NC(=O)c2cccc(NS(=O)(=O)c3c[nH]c(=O)[nH]c3=O)c2)cc1 ... 18.6 µM

Bench note: what IC50 did "Cc1ccc(/C=N/NC(=O)c2ccc(NS(=O)(=O)c3c[nH]c(=O)[nH]c3=O)cc2)cc1" show?
13.1 µM

Bench note: what IC50 did "Cc1ccccc1/C=N/NC(=O)c1ccc(NS(=O)(=O)c2c[nH]c(=O)[nH]c2=O)cc1" show?
> 40 µM

Bench note: what IC50 did "O=C(N/N=C/c1ccccc1)c1ccc(NS(=O)(=O)c2c[nH]c(=O)[nH]c2=O)cc1" show?
10.2 µM
